For each record, write down the corresponding log P.
- Assay type: physicochemical
- EXPERIMENTAL CONTEXT: method [a]: HPLC/LC-MS on reversed phase at pH 2.7, 0.1% formic acid in water / acetonitrile, gradient 10% to 95% acetonitrile

{"COMPOUND": "C#Cc1cnc2ccc(C3=NOC(CC)(C(=O)NCCCOCC)C3)cc2c1 (racemic) [compound 440]", "log P": "2.73[a]"}
{"COMPOUND": "CCn1cc(NC(=O)C2(C)CC(c3ccc4ncc(Br)cc4c3)=NO2)c(C)n1 (stereo not drawn) [compound 489]", "log P": "2.50[a]"}

Next item in the queue.
Query: Tell me log P reported for COC1(C(=O)NC2CCC2)CC(c2ccc3ncc(I)cc3c2)=NO1 (stereo not drawn) [compound 482]
Result: 2.95[a]

* * *

- Format: physicochemical
- EXPERIMENTAL CONTEXT: HPLC on reversed phase columns, method [a]: pH 2.7, 0.1% formic acid in water / acetonitrile, linear gradient 10% to 95% acetonitrile
ASSAY READOUT: log P

Hi, could you look up log P for each item in my list?
1. Cc1nn(C2CCCC2)cc1CNC(=O)C1(C)CC(c2ccc3ncc(Br)cc3c2)=NO1 (stereo not drawn)
2. CCn1cc(CNC(=O)C2(C)CC(c3ccc4ncc(Br)cc4c3)=NO2)c(SC)n1 (stereo not drawn)

Result:
3.04[a]
2.78[a]

* * *

- EXPERIMENTAL CONTEXT: Table 2, formula (II); method [a]: pH 2.7, 0.1% formic acid in water / acetonitrile gradient
For each record, write down the corresponding Log P.

Before answering, review these 2 worked examples.
{"COMPOUND": "COC1(C(=O)O)CC(c2cc(Cl)c3ncc(Br)cc3c2)=NO1 (stereo not drawn) [II-89]", "READING": "2.19[a]"}
{"COMPOUND": "O=C(O)C1(c2ccccc2)CC(c2ccc3ncc(Br)cc3c2)=NO1 (racemic) [II-12]", "READING": "2.76[a]"}

Query: Tell me Log P reported for CCOC(=O)C1(C)ON=C(c2ccc3ncc(Br)cc3c2)C1OCC (stereo not drawn) [II-49]
Result: 3.99[a]

* * *

- Tested on: Septoria tritici
- TEST SUMMARY: In vivo preventive test on Septoria tritici (leaf spot on wheat)
- EXPERIMENTAL CONTEXT: 500 ppm; wheat plants sprayed 24 hours before contamination; grading 21 to 28 days after contamination vs control plants
- Description: Wheat plants (“Scipion” variety), sown in starter cups on a 50/50 peat soil-pozzolana substrate and grown at 22° C. (12 h)/20° C. (12 h), are treated at the 1-leaf stage (10 cm height) by spraying with the active ingredient prepared as described above. Plants, used as controls, are treated with the mixture of acetone/tween/DMSO/water not containing the active material. […]
ASSAY READOUT: % of efficacy (protection)

{"COMPOUND": "CCCn1cc(CNC(=O)C2(OC)CC(c3cc(Cl)c4ncc(Br)cc4c3)=NO2)c(C)n1 (stereo not drawn)", "% of efficacy (protection)": "100%"}
{"COMPOUND": "C#Cc1cnc2ccc(C3=NOC(OC)(C(=O)N(CC(F)F)C(C)C)C3)cc2c1 (stereo not drawn)", "% of efficacy (protection)": "97%"}

Query: Tell me % of efficacy (protection) reported for CCn1cc(C(C)NC(=O)C2(C)CC(c3ccc4ncc(Br)cc4c3)=NO2)c(C)n1 (stereo not drawn)
Result: 100%
